Cited source for all entries: patent US20250135039A1

Tested on: U251 human glioblastoma cell line
Assay: in vitro FM-HCR assay of MGMT activity (mPlum O^6MeG reporter plasmid)
Type: cell-based
Conditions: DMSO condition; relative to wild-type MGMT in same condition
Measured Endpoint: MGMT activity (% of WT) DMSO

Value of measured MGMT activity (% of WT) DMSO for the entry G160P: MGMT polypeptide with mutation G160P (protein) MDKDCEMKRTTLDSPLGKLELSGCEQGLHEIKLLGKGTSAADAVEVPAPAAVLGGPEPLMQCTAWLNAYFHQPEAIEEFPVPALHHPVFQQESFTRQVLWKLLKVVKFGEVISYQQLAALAGNPKAARAVGGAMRGNPVPILIPCHRVVCSSGAVGNYSPGLAVKEWLLAHEGHRLGKPGLGGSSGLAGAWLKGAGATSGSPPAGRN : 81.3 % of WT

The reported value for P140R: MGMT polypeptide with mutation P140R (protein) MDKDCEMKRTTLDSPLGKLELSGCEQGLHEIKLLGKGTSAADAVEVPAPAAVLGGPEPLMQCTAWLNAYFHQPEAIEEFPVPALHHPVFQQESFTRQVLWKLLKVVKFGEVISYQQLAALAGNPKAARAVGGAMRGNPVRILIPCHRVVCSSGAVGNYSGGLAVKEWLLAHEGHRLGKPGLGGSSGLAGAWLKGAGATSGSPPAGRN in terms of MGMT activity (% of WT) DMSO is 73.0 % of WT

Lab book: MGMT activity (% of WT) DMSO of S159W: MGMT polypeptide with mutation S159W (protein) MDKDCEMKRTTLDSPLGKLELSGCEQGLHEIKLLGKGTSAADAVEVPAPAAVLGGPEPLMQCTAWLNAYFHQPEAIEEFPVPALHHPVFQQESFTRQVLWKLLKVVKFGEVISYQQLAALAGNPKAARAVGGAMRGNPVPILIPCHRVVCSSGAVGNYWGGLAVKEWLLAHEGHRLGKPGLGGSSGLAGAWLKGAGATSGSPPAGRN noted as 59.0 % of WT

Reported MGMT activity (% of WT) DMSO ( M134Y: MGMT polypeptide with mutation M134Y (protein) MDKDCEMKRTTLDSPLGKLELSGCEQGLHEIKLLGKGTSAADAVEVPAPAAVLGGPEPLMQCTAWLNAYFHQPEAIEEFPVPALHHPVFQQESFTRQVLWKLLKVVKFGEVISYQQLAALAGNPKAARAVGGAYRGNPVPILIPCHRVVCSSGAVGNYSGGLAVKEWLLAHEGHRLGKPGLGGSSGLAGAWLKGAGATSGSPPAGRN ) = 17.1 % of WT

Form field MGMT activity (% of WT) DMSO, entry S159F: MGMT polypeptide with mutation S159F (protein) MDKDCEMKRTTLDSPLGKLELSGCEQGLHEIKLLGKGTSAADAVEVPAPAAVLGGPEPLMQCTAWLNAYFHQPEAIEEFPVPALHHPVFQQESFTRQVLWKLLKVVKFGEVISYQQLAALAGNPKAARAVGGAMRGNPVPILIPCHRVVCSSGAVGNYFGGLAVKEWLLAHEGHRLGKPGLGGSSGLAGAWLKGAGATSGSPPAGRN : 80.4 % of WT
